Cited source for all entries: patent US11787775B2

- tested.target: TEAD2 (Homo sapiens (Human))
- Sequence (Q15562 whole entry): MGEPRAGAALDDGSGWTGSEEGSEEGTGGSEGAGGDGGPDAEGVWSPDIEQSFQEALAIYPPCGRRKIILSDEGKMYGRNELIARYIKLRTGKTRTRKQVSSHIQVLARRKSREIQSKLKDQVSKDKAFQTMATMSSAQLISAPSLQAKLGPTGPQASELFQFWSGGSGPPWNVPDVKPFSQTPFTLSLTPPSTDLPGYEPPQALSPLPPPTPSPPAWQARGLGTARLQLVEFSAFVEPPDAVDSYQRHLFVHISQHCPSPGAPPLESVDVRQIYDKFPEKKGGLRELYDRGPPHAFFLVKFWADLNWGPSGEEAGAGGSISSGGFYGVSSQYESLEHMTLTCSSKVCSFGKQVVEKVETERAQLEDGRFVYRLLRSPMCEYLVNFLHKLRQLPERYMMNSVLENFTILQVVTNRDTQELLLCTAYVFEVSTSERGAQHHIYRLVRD
- assay.remarks: TEAD lipid pocket TR-FRET (Lipid HTRF) probe competition assay
- Type: binding
- run.parameters: 30 mins incubation with compound; read-out: Lipid HTRF TEAD2 IC50
Kindly supply the reported IC50 values for the records listed here.
Numbers only, in nM.

// below: answered molecules
molecule | IC50 (nM)
C=C(CNc1cc(-c2ccc(OC(F)(F)F)cc2)c2c(c1C#N)CCO2)C(=O)O [Compound 18] | 140
C=C(CNc1cc(-c2ccc(OC(F)(F)F)cc2)c2ncsc2c1C#N)C(N)=O [Compound 42] | 140
C=C(CNc1cc(-c2ccc(C(C)C)cc2)c2c(c1F)CCO2)C(=O)O [Compound 21] | 70
C=C(CNc1cc2c(c(-c3ccc(C(C)C)cc3)c1)OCC2)C(N)=O [Compound 2] | 80
C=C(CNc1nc(-c2ccc(C(C)C)cc2)c2c(c1C#N)CCO2)C(=O)O [Compound 22] | 100

// below: IC50 requested for another molecule
With TEAD2 (Homo sapiens (Human)) as the test system, provide measured IC50 for this molecule: C=C(CNc1cc(-c2ccc(C(C)C)cc2)c2c(c1S(C)(=O)=O)CCO2)C(=O)O [Compound 50]
100
